Here the recorded log10 vapour pressure (mmHg) is given for each entry.
QUANTITY KIND: log10 vapour pressure (mmHg)

COMPOUND	QUANTITY KIND	MEAS VALUE
CCC(C)C	log10 vapour pressure (mmHg)	2.84
CC(=O)Oc1ccccc1C(=O)O	log10 vapour pressure (mmHg)	-4.6
CCCCCCCCCCCCC(=O)O	log10 vapour pressure (mmHg)	-4.9
CCNc1nc(NC(C)C(C)C)nc(SC)n1 (stereo not drawn)	log10 vapour pressure (mmHg)	-5.85
O=C(O)C(F)(F)C(F)(F)C(F)(F)C(F)(F)C(F)(F)C(F)(F)F	log10 vapour pressure (mmHg)	-0.876
CC(C)C(Cl)Cl	log10 vapour pressure (mmHg)	1.6
C1CCCCC1	log10 vapour pressure (mmHg)	1.99
CN(C)C(=O)C(c1ccccc1)c1ccccc1	log10 vapour pressure (mmHg)	-7.52
FC(F)(F)Br	log10 vapour pressure (mmHg)	4.09
COC(C)(C)C	log10 vapour pressure (mmHg)	2.4
CCC(C)(C)O	log10 vapour pressure (mmHg)	1.22
CC1=CCC(C(C)C)C=C1 (stereo not drawn)	log10 vapour pressure (mmHg)	0.147
Clc1ccc(/N=N/c2ccccc2)cc1	log10 vapour pressure (mmHg)	-5.7
CC(C)I	log10 vapour pressure (mmHg)	1.63
CSc1nnc(C(C)(C)C)c(=O)n1/N=C/C(C)C	log10 vapour pressure (mmHg)	-6.46
Clc1ccc2c(c1)Oc1cc(Cl)c(Cl)c(Cl)c1O2	log10 vapour pressure (mmHg)	-8.12
CCCCCCCCCCCCF	log10 vapour pressure (mmHg)	-0.682
CCn1c2ccccc2c2ccccc21	log10 vapour pressure (mmHg)	-3.66
C=C(C)CC(C)C	log10 vapour pressure (mmHg)	1.98
C1CC2CC12 (stereo not drawn)	log10 vapour pressure (mmHg)	2.56
CCCCCCCCCCCCCCCCCCS	log10 vapour pressure (mmHg)	-6.4
CCCc1ccccc1	log10 vapour pressure (mmHg)	0.534
C=C(C)C(=O)OCCO	log10 vapour pressure (mmHg)	-0.9
COc1ccc(C=O)cc1	log10 vapour pressure (mmHg)	-1.48
C[Se][Se]C	log10 vapour pressure (mmHg)	0.455
CCN(CC)C(=O)SCc1ccc(Cl)cc1	log10 vapour pressure (mmHg)	-4.66
CC1COC(=O)O1 (stereo not drawn)	log10 vapour pressure (mmHg)	-1.35
CCCCCCCCCCCCCC1CCCCC1	log10 vapour pressure (mmHg)	-5.04
CCCCN(CCCC)CCCC	log10 vapour pressure (mmHg)	-1.03
Cc1cc(C)cc(O)c1	log10 vapour pressure (mmHg)	-1.39
ClC1=C(Cl)C2(Cl)C3C(Cl)C=CC3C1(Cl)C2(Cl)Cl (stereo not drawn)	log10 vapour pressure (mmHg)	-3.4
CCOc1cc(Oc2ccc(C(F)(F)F)cc2Cl)ccc1[N+](=O)[O-]	log10 vapour pressure (mmHg)	-6.7
CCC1CO1 (stereo not drawn)	log10 vapour pressure (mmHg)	2.26
Oc1cc(Cl)cc(Cl)c1	log10 vapour pressure (mmHg)	-2.07
CCCCSCCCC	log10 vapour pressure (mmHg)	0.0792
Clc1ccc(Oc2cc(Cl)ccc2Cl)cc1	log10 vapour pressure (mmHg)	-3.76
O=C(Nc1ccc([N+](=O)[O-])cc1Cl)c1cc(Cl)ccc1O	log10 vapour pressure (mmHg)	-10.8
COCC(=O)N(c1c(C)cccc1C)N1CCOC1=O	log10 vapour pressure (mmHg)	-7.61
O=[N+]([O-])c1ccc(N=Nc2ccc(O)cc2)cc1	log10 vapour pressure (mmHg)	-9.52
CCCCCCCCc1ccccc1	log10 vapour pressure (mmHg)	-1.95
C1CCC2CC2C1 (stereo not drawn)	log10 vapour pressure (mmHg)	1.36
CCCCCCCCOC(=O)c1ccccc1C(=O)OCCCCCCCC	log10 vapour pressure (mmHg)	-7
Cc1cc(Cl)ccc1N=CN(C)C	log10 vapour pressure (mmHg)	-3.03
CCCCC(C)Cl (stereo not drawn)	log10 vapour pressure (mmHg)	1.13
Nc1ccccc1N	log10 vapour pressure (mmHg)	-2.69
CCCCNCCCC	log10 vapour pressure (mmHg)	0.413
CC(C=O)=Cc1ccccc1	log10 vapour pressure (mmHg)	-1.82
Clc1cc2c(Cl)c(Cl)c(Cl)c(Cl)c2cc1Cl	log10 vapour pressure (mmHg)	-6.46
O=C(OC(=O)c1ccccc1)c1ccccc1	log10 vapour pressure (mmHg)	-3.93
CCCO	log10 vapour pressure (mmHg)	1.32
CCCCNC(=O)n1c(NC(=O)OC)nc2ccccc21	log10 vapour pressure (mmHg)	-8.43
O=C1CCCC1	log10 vapour pressure (mmHg)	1.06
Brc1ccc(Oc2cc(Br)c(Br)cc2Br)c(Br)c1	log10 vapour pressure (mmHg)	-7.51
CC(O)CC(C)(C)O (stereo not drawn)	log10 vapour pressure (mmHg)	-1.89
Oc1ccc(Cl)cc1Cc1ccccc1	log10 vapour pressure (mmHg)	-5.85
CN(C)C(=O)Nc1ccc(Cl)cc1	log10 vapour pressure (mmHg)	-6.3
C1CCSCC1	log10 vapour pressure (mmHg)	0.895
CCc1ccc(N)cc1	log10 vapour pressure (mmHg)	-0.844
COc1ccccc1N	log10 vapour pressure (mmHg)	-1.1
C=C(C)CC(C)=O	log10 vapour pressure (mmHg)	1.18
CON	log10 vapour pressure (mmHg)	2.46
ClCC(Cl)=C(Cl)Cl	log10 vapour pressure (mmHg)	0.428
CS(=O)(=O)c1cc(C(F)(F)F)ccc1C(=O)c1cnoc1C1CC1	log10 vapour pressure (mmHg)	-8.12
CCCCCCCCCCCC=O	log10 vapour pressure (mmHg)	-1.82
C#CC(C)(O)CC (stereo not drawn)	log10 vapour pressure (mmHg)	0.72
Cc1c(N)cccc1N	log10 vapour pressure (mmHg)	-2.61
Cc1ccc(C)c(C)c1C	log10 vapour pressure (mmHg)	-0.443
CC(C)C1CCC(Cc2ccc(Cl)cc2)C1(O)Cn1cncn1 (stereo not drawn)	log10 vapour pressure (mmHg)	-7.4
